Species on record: Rattus norvegicus
Experiment: Open TG-GATES - Regimen: Single
Format: toxicity, organism-based, Sprague-Dawley
Parameters: regimen Single, gender Male, age 6 weeks
Settings: in vivo, po, 0 mg/kg, 9 h, tissue Plasma, route gavage, dose level Control
Below, each entry is listed alongside its reported DBIL.
State just the number; it will be interpreted in mg/dL.

Would you please look over these solved cases?
COc1ccc(Cl)cc1C(=O)NCCc1ccc(S(=O)(=O)NC(=O)NC2CCCCC2)cc1 [GLYBURIDE]
0.09
CS(=O)(=O)Nc1ccc([N+](=O)[O-])cc1Oc1ccccc1 [NIMESULIDE]
0.028
O=C1CN(/N=C/c2ccc(-c3ccc([N+](=O)[O-])cc3)o2)C(O)=N1 [DANTROLENE]
0.084
Cc1cnc(NC(=O)C2=C(O)c3ccccc3S(=O)(=O)N2C)s1 [MELOXICAM]
0.068

Now, please, on to the next molecule.
Given item CNCCC(Oc1ccc(C(F)(F)F)cc1)c1ccccc1.Cl (stereo not given) [FLUOXETINE HYDROCHLORIDE] , the value recorded as its DBIL is 0.01

Cited source for all entries: ChEMBL document CHEMBL3885861
